# run.description: Phase I five-way crossover: intranasal and sublingual naloxone spray 8 mg and 16 mg versus 0.4 mg intramuscular, plasma concentrations
# Type: in vivo, human subjects
# cond: human, other: sublingual; 8 mg SL; plasma, mean ± SD
measure: concentration at 0.13 h (ng/mL)
Answer in ng/mL, number only, no unit symbol.

*Q* What measured concentration at 0.13 h goes with C=CCN1CC[C@]23c4c5ccc(O)c4O[C@H]2C(=O)CC[C@@]3(O)[C@H]1C5 [naloxone, Naloxone] ?
*A* 1.17

###

# run.description: Phase I five-way crossover: intranasal and sublingual naloxone spray 8 mg and 16 mg versus 0.4 mg intramuscular, plasma concentrations
# Format: in vivo, human subjects
# cond: human, plasma, other: sublingual; 8 mg SL
measure: Cmax (ng/mL)
Answer in ng/mL, number only, no unit symbol.

*Q* What measured Cmax goes with `C=CCN1CC[C@]23c4c5ccc(O)c4O[C@H]2C(=O)CC[C@@]3(O)[C@H]1C5` ?
*A* 2.03
